Where do the numbers come from? From PubChem BioAssay (NCI).

# Tested on: U251 CNS
# assay: NCI tumour cell line growth inhibition, 48 h
propertyName: TGI

Example entries and their recorded answers appear below.
Nc1nc(N)c2[nH]c(CNc3ccc(C(=O)O)cc3)nc2n1
> 100 µM
CCOc1nc(-c2ccccc2)cc2c(O)c(-c3nnco3)[nH]c(=O)c12
> 43.7 µM

I'm hoping you can list TGI for every molecule here, please.
1. Cc1cc2nc3c(C#N)c(-c4ccccc4)cc(Nc4ccc(Cl)cc4)n3c2cc1C
2. Cn1cc(C2=C(c3ccc4ccccc4c3)C(=O)NC2=O)c2ccccc21

a:
1: > 100 µM; 2: > 25 µM

I'm hoping you can list TGI for every molecule here, please.
1. NC(=O)C(N)Cc1ccc(O)cn1 (stereo unspecified)
2. NC(CCCCP(=O)(O)O)C(=O)O (stereo unspecified)

a:
1: > 100 µM; 2: > 100 µM
